From: ChEMBL document CHEMBL5096182

System: A2780
MEASUREMENT_NOTES: Antiproliferative activity against human A2780 cells incubated for 48 hrs by SRB assay
Assay type: functional, cell-based
SETTINGS: A2780, 48 h
pIC50: −log10 of the molar value.
READOUT_TYPE: pIC50

> print(dat)
                                   compound  observed
1  NC1=C(C(=O)Nc2ccc(-c3nc4ccccc4[nH]3)cc2)C(c2ccc([N+](=O)[O-])cc2)N2C=CSC2N1 (configuration not stated)      5.46
2  COc1ccccc1C1C(C(=O)Nc2ccc(-c3nc4ccccc4[nH]3)cc2)=C(N)NC2SC=CN21 (configuration not stated)      5.51
